# study-system: human TYK2 (JH2domain-pseudokinase) (Homo sapiens (Human))
# measurement-notes: TYK2 JH2 Domain Binding Assay (KINOMEscan)
pKd: −log10 of the molar value.
The following molecules are listed with their measured pKd values.

As a guide, the following entries are already answered.
- molecule: "CNc1cc(Nc2cccn([C@@H]3CCCOC3)c2=O)nc2c(C(=O)N[C@@H]3CC[C@@H]3O)cnn12"
  measurement-kind: "pKd"
  observed-measurement: "9.00 to 9.70"
- molecule: "CNc1cc(-c2cn([C@H]3CCCOC3)c3ncccc23)nc2c(C(=O)N[C@H]3CC[C@H]3O)cnn12"
  measurement-kind: "pKd"
  observed-measurement: "< 8.00"
- molecule: "CNc1cc(Nc2cccn(C3CCOCC3)c2=O)nc2c(C(=O)N[C@@H]3CC[C@H](O)C3)cnn12 [I-1357]"
  measurement-kind: "pKd"
  observed-measurement: "< 8.00"
- molecule: "CNc1cc(-c2cn(C(C)C)c3ncccc23)nc2c(C(=O)NC3CC4(COC4)C3)cnn12"
  measurement-kind: "pKd"
  observed-measurement: "9.00 to 9.70"
- molecule: "CNc1cc(Nc2cccn([C@H]3CCCC[C@H]3OC)c2=O)nc2c(C(=O)NCC3(CO)CC3)cnn12"
  measurement-kind: "pKd"
  observed-measurement: "9.00 to 9.70"

query: Short answer please: pKd, human TYK2 (JH2domain-pseudokinase) (Homo sapiens (Human)), entry CNc1cc(Nc2cccn(-c3ccc(C)nc3)c2=O)nc2c(C(=O)NCC(C)(C)CO)cnn12
result: > 9.70

query: And what about the molecule CNc1cc(Nc2cc(F)cn(-c3nn(C)cc3C)c2=O)nc2c(C(=O)N[C@@H]3C[C@@H]3F)cnn12 ?
result: < 8.00

query: And what about the molecule CNc1cc(Nc2cccc(N3CCC4(CCCO4)CC3)n2)nc2c(C(=O)N[C@@H]3CC[C@@H]3O)cnn12 [I-720] ?
result: 8.00 to 9.00

query: And what about the molecule CNc1cc(Nc2cccn(C3CC(F)(F)C3)c2=O)nc2c(C(=O)N[C@@H]3CC[C@H]3O)cnn12 ?
result: > 9.70

query: And what about the molecule CNc1cc(Nc2cccnc2OC(C)C)nc2c(C(N)=O)cnn12 ?
result: > 9.70

query: And what about the molecule Cc1cc(Nc2cc(N)n3ncc(C(N)=O)c3n2)c(=O)n(-c2ccn(C)n2)c1 ?
result: 9.00 to 9.70

query: And what about the molecule CNc1cc(Nc2cccnc2OC)nc2c(C(=O)NO)cnn12 ?
result: > 9.70

query: And what about the molecule CNc1cc(Nc2cccn([C@@H]3CCC[C@@H]3O)c2=O)nc2c(C(=O)N[C@@H]3CC[C@H]3OC)cnn12 ?
result: > 9.70

query: And what about the molecule CNc1cc(Nc2cccn(-c3ccc(F)cc3)c2=O)nc2c(C(=O)N[C@H]3C[C@H]3F)cnn12 ?
result: > 9.70

query: And what about the molecule Nc1cc(Nc2cccc(N3CCCC3=O)n2)nc2c(C(=O)NC3COC3)cnn12 ?
result: < 8.00

query: And what about the molecule [2H]C([2H])([2H])Oc1ncccc1Nc1cc(NC)n2ncc(C(=O)N[C@@H]3CCC[C@@H](O)C3)c2n1 ?
result: > 9.70

====

The following compounds are listed with their measured inhibition at 10 µM values.
# study-system: JAK2 kinase domain (JH1) (Homo sapiens (Human))
# measurement-notes: JAK2 Radioactive Kinase Assay
# Type: biochemical
# particulars: compound at 10 μM; ATP 10 μM; read-out: JAK2 JH1% Inhibition @ 10 μM

- compound: "CNc1cc(Nc2cccn(-c3cnc(C(C)(C)O)cn3)c2=O)nc2c(C(N)=O)cnn12"
  inhibition at 10 µM: "< 50%"
- compound: "CNc1cc(Nc2cc(Cl)cnc2OC2CCC2)nc2c(C(=O)NC3COC3)cnn12"
  inhibition at 10 µM: "< 50%"

query: Short answer please: inhibition at 10 µM, JAK2 kinase domain (JH1) (Homo sapiens (Human)), entry Cc1c(Nc2cccnc2OC(C)C)nc2c(C(=O)NC3CC3)cnn2c1N
result: < 50%

query: And what about the compound CNc1cc(Nc2cc(Cl)cn(C3CCCN(C)C3)c2=O)nc2c(C(=O)NC3CC3)cnn12 (centres unmarked) ?
result: < 50%

query: And what about the compound NC(=O)c1cnn2c(N)cc(Nc3cccc(N4CCOCC4)c3Cl)nc12 ?
result: 70 to 90%

====

# study-system: human TYK2 (JH2domain-pseudokinase) (Homo sapiens (Human), UniProt P29597)
# Sequence (P29597 556-888): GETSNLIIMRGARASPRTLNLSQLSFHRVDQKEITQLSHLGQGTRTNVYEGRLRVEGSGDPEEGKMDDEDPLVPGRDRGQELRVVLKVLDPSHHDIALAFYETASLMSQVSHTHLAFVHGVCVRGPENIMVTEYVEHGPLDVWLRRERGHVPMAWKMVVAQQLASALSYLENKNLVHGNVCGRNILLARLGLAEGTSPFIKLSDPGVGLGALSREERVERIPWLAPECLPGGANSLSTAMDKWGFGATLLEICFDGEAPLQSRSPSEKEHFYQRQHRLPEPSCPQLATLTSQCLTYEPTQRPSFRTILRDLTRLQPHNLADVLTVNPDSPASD
# measurement-notes: TYK2 JH2 Domain Binding Assay (KINOMEscan)
The following molecules are listed with their measured Kd values.

- molecule: "CNc1cc(Nc2cccn(-c3ccc(OC)cn3)c2=O)nc2c(C(=O)N[C@H]3C[C@H]3F)cnn12"
  study-system: "human TYK2 (JH2domain-pseudokinase) (Homo sapiens (Human), UniProt P29597)"
  observed-measurement: "< 0.2 nM"
- molecule: "CNc1cc(Nc2cccc(N3CCCC3=O)n2)nc2c(C(=O)N[C@H]3C[C@H]3F)cnn12"
  study-system: "human TYK2 (JH2domain-pseudokinase) (Homo sapiens (Human), UniProt P29597)"
  observed-measurement: "< 0.2 nM"
- molecule: "Cc1cc(Nc2cc(N)n3ncc(C(N)=O)c3n2)cc(N2CCCC(O)C2)n1 (stereo in doubt)"
  study-system: "human TYK2 (JH2domain-pseudokinase) (Homo sapiens (Human), UniProt P29597)"
  observed-measurement: "> 10 nM"
- molecule: "CNc1cc(-c2cn(CCN3CCOCC3)c3ncccc23)nc2c(C(=O)NC3CC3)cnn12"
  study-system: "human TYK2 (JH2domain-pseudokinase) (Homo sapiens (Human), UniProt P29597)"
  observed-measurement: "< 0.2 nM"
- molecule: "CNc1cc(Nc2cccn([C@H]3CCN(CCF)C3)c2=O)nc2c(C(=O)N[C@@H]3C[C@@H]3F)cnn12"
  study-system: "human TYK2 (JH2domain-pseudokinase) (Homo sapiens (Human), UniProt P29597)"
  observed-measurement: "< 0.2 nM"

query: Any idea what Kd was measured for CNc1cc(Nc2cccn(C(C)C)c2=O)nc2c(C(=O)N[C@H]3COC[C@H]3O)cnn12 [I-1302] ?
result: < 0.2 nM

query: And what about the molecule CNc1cc(Nc2cccn([C@@H]3CCC[C@@H](OC)C3)c2=O)nc2c(C(=O)NCC(C)(C)CO)cnn12 ?
result: 0.2 to 1 nM

query: And what about the molecule CNc1cc(Nc2cccn([C@H]3CCC[C@H](O)C3)c2=O)nc2c(C(=O)NC3CC3)cnn12 ?
result: < 0.2 nM

====

# study-system: Tyk2/JAK2 (heterodimeric complex) (Homo sapiens (Human))
# Sequence (P29597 whole entry, other chains not shown): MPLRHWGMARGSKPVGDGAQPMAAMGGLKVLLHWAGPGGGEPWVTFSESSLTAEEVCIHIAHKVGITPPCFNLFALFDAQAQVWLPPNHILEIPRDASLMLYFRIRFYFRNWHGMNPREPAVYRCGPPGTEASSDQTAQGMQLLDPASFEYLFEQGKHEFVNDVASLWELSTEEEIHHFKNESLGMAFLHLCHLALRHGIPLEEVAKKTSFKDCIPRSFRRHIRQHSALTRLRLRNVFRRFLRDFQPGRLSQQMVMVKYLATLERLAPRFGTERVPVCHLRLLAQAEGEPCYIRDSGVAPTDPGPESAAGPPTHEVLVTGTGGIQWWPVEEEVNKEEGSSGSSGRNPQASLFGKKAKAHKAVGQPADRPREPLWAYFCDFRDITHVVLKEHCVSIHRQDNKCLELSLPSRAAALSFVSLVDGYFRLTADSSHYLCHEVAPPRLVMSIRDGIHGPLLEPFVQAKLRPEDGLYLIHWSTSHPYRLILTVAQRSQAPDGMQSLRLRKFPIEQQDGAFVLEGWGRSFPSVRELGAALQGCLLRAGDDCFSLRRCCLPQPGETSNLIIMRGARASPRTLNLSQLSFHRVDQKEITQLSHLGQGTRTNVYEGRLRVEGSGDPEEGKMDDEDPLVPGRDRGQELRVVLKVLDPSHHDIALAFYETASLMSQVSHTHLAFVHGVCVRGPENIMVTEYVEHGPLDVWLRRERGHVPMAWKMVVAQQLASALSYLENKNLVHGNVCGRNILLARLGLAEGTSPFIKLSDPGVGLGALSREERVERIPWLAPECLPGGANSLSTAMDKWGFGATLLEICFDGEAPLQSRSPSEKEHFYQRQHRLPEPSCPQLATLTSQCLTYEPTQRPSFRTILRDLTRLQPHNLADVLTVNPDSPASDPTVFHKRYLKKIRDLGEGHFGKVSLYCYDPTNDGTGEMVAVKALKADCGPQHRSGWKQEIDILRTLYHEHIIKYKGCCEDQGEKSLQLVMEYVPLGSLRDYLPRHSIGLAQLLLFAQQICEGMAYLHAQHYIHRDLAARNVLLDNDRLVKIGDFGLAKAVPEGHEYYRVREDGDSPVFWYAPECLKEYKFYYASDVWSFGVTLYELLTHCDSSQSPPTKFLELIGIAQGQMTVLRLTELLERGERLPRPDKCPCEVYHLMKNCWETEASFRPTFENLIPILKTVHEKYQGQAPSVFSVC
# measurement-notes: IL-12 Induced pSTAT4 in Human PBMC
# particulars: 1.7 ng/mL IL-12
The following compounds are listed with their measured IC50 values.

- compound: "CNc1cc(Nc2cc(Cl)cn(C3CCN(C)CC3)c2=O)nc2c(C(=O)N[C@@H]3C[C@@H]3F)cnn12 [I-789]"
  study-system: "Tyk2/JAK2 (heterodimeric complex) (Homo sapiens (Human))"
  IC50: "< 100 nM"
- compound: "CNc1cc(Nc2cccn(-c3cnn(C)c3)c2=O)nc2c(C(=O)NC3CC3)cnn12 [I-295]"
  study-system: "Tyk2/JAK2 (heterodimeric complex) (Homo sapiens (Human))"
  IC50: "< 100 nM"

Next item in the queue.
query: Any idea what IC50 was measured for CNc1cc(Nc2cccnc2OC2CC2)nc2c(C(=O)N[C@H]3CC[C@@H]3O)cnn12 [I-397] ?
result: < 100 nM

====

The following compounds are listed with their measured inhibition at 10 µM values.
# study-system: JAK2 kinase domain (JH1) (Homo sapiens (Human), UniProt O60674)
# Sequence (O60674 849-1124): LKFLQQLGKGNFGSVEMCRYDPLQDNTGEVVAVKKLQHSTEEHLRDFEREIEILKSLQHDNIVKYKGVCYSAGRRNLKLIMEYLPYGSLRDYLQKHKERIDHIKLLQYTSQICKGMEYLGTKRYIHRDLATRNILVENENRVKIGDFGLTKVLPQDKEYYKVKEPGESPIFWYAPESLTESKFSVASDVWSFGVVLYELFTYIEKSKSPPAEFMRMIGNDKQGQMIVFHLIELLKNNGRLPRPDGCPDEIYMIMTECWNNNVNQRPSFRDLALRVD
# measurement-notes: JAK2 Radioactive Kinase Assay
# Assay type: biochemical
# particulars: 10 μM compound; 10 μM ATP; read-out: JAK2 JH1% Inhibition @ 10 μM

As a guide, the following entries are already answered.
- smiles-code: "CNc1cc(Nc2cccn(C3CCCCC3)c2=O)nc2c(C(=O)NC[C@H](C)CO)cnn12"
  inhibition at 10 µM: "< 50%"
- smiles-code: "CNc1cc(Nc2cccn(-c3cccnc3C)c2=O)nc2c(C(=O)N[C@@H]3C[C@@H]3F)cnn12"
  inhibition at 10 µM: "< 50%"
- smiles-code: "CNc1cc(Nc2cccn([C@@H]3C[C@H]3F)c2=O)nc2c(C(=O)N[C@H]3CC[C@H]3O)cnn12"
  inhibition at 10 µM: "< 50%"

Next item in the queue.
query: Any idea what inhibition at 10 µM was measured for CNC(=O)c1occc1Nc1cc(NC)n2ncc(C(=O)N[C@@H]3C[C@@H]3F)c2n1 ?
result: < 50%

====

# study-system: human TYK2 (JH2domain-pseudokinase) (Homo sapiens (Human), UniProt P29597)
# measurement-notes: TYK2 JH2 Domain Binding Assay (KINOMEscan)
pKd: −log10 of the molar value.
The following compounds are listed with their measured pKd values.

- compound: "CNc1cc(Nc2cccn(C(C)C)c2=O)nc2c(C(=O)N[C@H]3CC[C@@]3(C)O)cnn12 (stereo in doubt) [I-1116]"
  measurement-kind: "pKd"
  observed-measurement: "< 8.00"
- compound: "CNc1cc(Nc2cccn([C@H]3CCN(CCF)C3)c2=O)nc2c(C(=O)N[C@H]3CC[C@@H]3OC)cnn12 [I-1381]"
  measurement-kind: "pKd"
  observed-measurement: "9.00 to 9.70"
- compound: "CNc1cc(Nc2cc(C)nc(C)c2)nc2c(C(N)=O)cnn12"
  measurement-kind: "pKd"
  observed-measurement: "8.00 to 9.00"
- compound: "CNc1cc(Nc2cccn(C3=NC(C)(C)CS3)c2=O)nc2c(C(=O)NC3CC3)cnn12"
  measurement-kind: "pKd"
  observed-measurement: "9.00 to 9.70"
- compound: "CNc1cc(Nc2cccn([C@H]3C[C@@H]3OC)c2=O)nc2c(C(=O)N[C@@H]3C[C@@H]3F)cnn12"
  measurement-kind: "pKd"
  observed-measurement: "8.00 to 9.00"

query: Any idea what pKd was measured for CNc1cc(Nc2cccc(N3CCC4(CCCO4)CC3)n2)nc2c(C(=O)N[C@H]3CC[C@H]3O)cnn12 ?
result: > 9.70

query: And what about the compound [2H]C([2H])([2H])Oc1ncccc1Nc1cc(NC)n2ncc(C(=O)NC3[C@H]4COC[C@@H]34)c2n1 (stereo partly shown) ?
result: > 9.70

query: And what about the compound CNc1cc(Nc2cccn(-c3nc(C)co3)c2=O)nc2c(C(=O)NC(C)(C)C#N)cnn12 ?
result: 9.00 to 9.70

query: And what about the compound CNc1cc(Nc2cccnc2OC(F)F)nc2c(C(=O)NC3CC3)cnn12 ?
result: 9.00 to 9.70

query: And what about the compound CNc1cc(Nc2cccn(-c3ccccn3)c2=O)nc2c(C(=O)N[C@@H]3CC[C@@H]3O)cnn12 [I-806] ?
result: 9.00 to 9.70

query: And what about the compound CNc1cc(Nc2cccn([C@H]3CCOC3)c2=O)nc2c(C(=O)NC3CCC3)cnn12 ?
result: > 9.70

query: And what about the compound CNc1cc(Nc2cccn([C@@H]3CCOC3)c2=O)nc2c(C(=O)NC3CCC3)cnn12 ?
result: 9.00 to 9.70

query: And what about the compound CNc1cc(Nc2cccn([C@@H]3C[C@H]3OC)c2=O)nc2c(C(=O)N[C@H]3CC[C@@H]3OC)cnn12 ?
result: 8.00 to 9.00

query: And what about the compound CNc1cc(Nc2cccn([C@H]3CCCOC3)c2=O)nc2c(C(=O)N[C@H]3CC[C@@H]3O)cnn12 ?
result: > 9.70

query: And what about the compound CNc1cc(Nc2cccn(-c3ccccn3)c2=O)nc2c(C(=O)N[C@H]3CC[C@H]3O)cnn12 ?
result: > 9.70

query: And what about the compound CNc1cc(Nc2cccn([C@@H]3CCCC[C@@H]3O)c2=O)nc2c(C(=O)NC3CC3)cnn12 [I-671] ?
result: > 9.70
